target: Follistatin (Homo sapiens); assay: follistatin binders on small-molecule microarrays, primary screen, biochemical, small-molecule microarray, 635/667 nm fluorescence (AID 1132); details: FST binding, 635 nm fluorescence, higher = more signal
MEASURED_METRIC: composite z-score
Field format: numeric only.

Give the reported value of composite z-score for this record: CC(C)C[C@@H]1NC(=O)[C@H]2C[C@@H](C(=O)NCCCCCCN)[C@@H](c3ccc(O)cc3)N2C1=O
1.32

Supply recorded composite z-score for CCCCN1CC=CC23O[C@@H]4C=CCOC(=O)[C@@H]4[C@H]2C(=O)N(CCCCCO)[C@@H]3C1=O (stereo partly drawn) here.
-0.712

Using the record for CN1C(=O)C2C=CC(C(O)Cc3ccccc3)N(Nc3ccccc3)C2C1=O (stereo not drawn) , state its measured composite z-score.
0.27

Find the measured composite z-score of CCCCCCC#C[Si](O[C@H](c1ccccc1)c1cn([C@H](CO)Cc2ccccc2)nn1)(C(C)C)C(C)C and report it.
-0.193

Report composite z-score, nothing else, for this compound: CC(C)C[C@H]1NC(=O)[C@@]23C(=O)N[C@@H](Cc4ccccc4)C2[C@H](C)[C@@]2(C)O[C@H]2C3/C=C/C/C=C\CNC(=O)[C@H](Cc2ccccc2)NC1=O (stereo partly drawn)
1.01

Determine its reported composite z-score: O=C1NC(=O)C2C1C=CC(C(O)Cc1ccccc1)N2Nc1ccc(Cl)cc1Cl (stereo not drawn)
0.178

***
Check the records and state composite z-score for C=CCNC(=O)[C@@H]1[C@H]2C(=O)O[C@H](c3ccccc3)[C@H](c3ccccc3)N2[C@H](c2ccc(OCCO)cc2)[C@@]12C(=O)Nc1ccc(C#CCCO)cc12
1.16

Tell us which composite z-score value is on record for COc1ccc([C@H]2C[C@H]3C(Br)=C[C@@H]2C(=O)[C@]32CO2)cc1
0.6

Please list composite z-score recorded for the compound C=CCOC(=O)[C@H]1[C@@H]2C(=O)O[C@@H](c3ccccc3)[C@@H](c3ccccc3)N2[C@@H](c2ccc(OCCOC(=O)[C@H]3C[C@H]4C(=O)N5CCC[C@H]5C(=O)N4[C@H]3c3ccc(O)cc3)cc2)[C@]12C(=O)Nc1ccccc12
1.39

Give the measured composite z-score for COC(=O)c1c(CC[C@@H](CO)NC(=O)N2CCC[C@H]2Cn2cc(-c3ccccn3)nn2)oc(C(C)=O)c1C(=O)OC
-0.0633

Supply reported composite z-score belonging to this compound: C=CCNC(=O)[C@H]1[C@@H]2C(=O)O[C@@H](c3ccccc3)[C@@H](c3ccccc3)N2[C@@H](c2ccc(OCCO)cc2)[C@]12C(=O)Nc1ccc(C#CC3=CCCCC3)cc12
1.26

Let me know recorded composite z-score for COCCOC(=O)N1C(=O)[C@@]2(c3cc(C#CC4=CCCCC4)ccc31)[C@H](C(=O)Nc1nc3ccccc3s1)[C@H]1C(=O)O[C@H](c3ccccc3)[C@H](c3ccccc3)N1[C@@H]2c1ccccc1OCCO , thanks.
1.38

Supply composite z-score value. Item: C=CCNC(=O)[C@H]1[C@@H]2C(=O)O[C@@H](c3ccccc3)[C@@H](c3ccccc3)N2[C@@H](c2ccccc2OCCO)[C@]12C(=O)Nc1ccc(C#CC3=CCCCC3)cc12
1.16
